These data points were gathered from patent US20210277126A1.

Listed here are binders together with their documented pKd.
- ASSAY SYSTEM: T1, human CLL1 ECD (65-265) (human, UniProt Q5QGZ9 65-265)
- T1 construct: Expressed in 293-F cells and purified by IMAC; also called huCLL1; recombinant human CLL1 protein
- T1 sequence: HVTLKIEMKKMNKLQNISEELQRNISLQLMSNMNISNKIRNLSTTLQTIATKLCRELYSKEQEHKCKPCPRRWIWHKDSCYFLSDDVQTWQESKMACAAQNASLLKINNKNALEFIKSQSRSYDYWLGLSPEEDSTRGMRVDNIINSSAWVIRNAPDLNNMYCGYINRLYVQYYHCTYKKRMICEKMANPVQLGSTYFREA
- EXPERIMENTAL DETAILS: SPR (Biacore T200), sdAb supernatant, recombinant human CLL1
Please keep in mind that pKd is minus log10 of the molar concentration; only the number is needed.

BINDER	REPORTED VALUE
AS82544 sdAb (VHH, Camel sdAb tested as E. coli culture supernatant; not shown: C-terminal His-tag encoded by the soluble expression vector) VHH: EVQLVESGGALVQPGGSLRLSCTASGFLFRVYDMNWVRQAPGKGVEWIVGITNNGYTTAYADSVKGRFTISRDNTENTLFLQMNSLKPEDTAMYYCQTDNGRVRGQGTQVTVSS	8.07

Shift focus to the following entry.
Enquiry: For the binder AS83309 sdAb (VHH, Camel sdAb tested as E. coli culture supernatant; not shown: C-terminal His-tag encoded by the soluble expression vector) VHH: EVQLVESGGDLVRPGGSLRLSCAASGFTFSIYDMNWVRQAPGKGLEWVAGISGNGYSTSYAESVKGRFTISKDNAKNTVYLQLSSLKFEDTAMYYCVRGGEKWDENDLRRKGQGTQVTVSS , give its reported pKd.
Return: 8.14
